measured.target: T1, Pig ASGR-1 (pig)
T1 construct: Expressed on HEK 293 cells or as membrane prep on beads; cDNA GenBank NM_001244458
T1 chain: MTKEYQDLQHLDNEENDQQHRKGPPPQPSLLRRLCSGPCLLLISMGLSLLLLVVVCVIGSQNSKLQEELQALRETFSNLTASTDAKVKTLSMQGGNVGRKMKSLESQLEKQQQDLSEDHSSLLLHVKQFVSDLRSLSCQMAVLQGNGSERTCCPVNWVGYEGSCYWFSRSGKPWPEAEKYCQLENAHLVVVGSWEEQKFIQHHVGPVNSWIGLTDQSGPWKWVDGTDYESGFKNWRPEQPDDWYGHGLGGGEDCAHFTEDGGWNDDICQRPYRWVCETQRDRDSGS
test.method.notes: FACS on transfected HEK 293 cells or membrane preps on beads; Y = signal at least 2x irrelevant IgG

binder: 190F8 (antibody, V domains shown, Tested as hybridoma supernatant at normalized concentration) VH: QVQLVESGGGVVQPGRSLRLSCAASGFTFSTYGMHWVRQAPGKGLEWVAVIWYDGSNKNYADSVKGRFTISRDNSKNTLYLQMNSLRAEDTAVYYCARDQGVGYDGLDVWGQGTTVTVSS VL: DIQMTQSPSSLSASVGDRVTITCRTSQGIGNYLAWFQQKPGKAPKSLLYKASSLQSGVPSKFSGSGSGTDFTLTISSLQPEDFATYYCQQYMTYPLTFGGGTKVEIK
binding result: binds
//
binder: 191G1 (antibody, V domains shown, Tested as hybridoma supernatant at normalized concentration) VH: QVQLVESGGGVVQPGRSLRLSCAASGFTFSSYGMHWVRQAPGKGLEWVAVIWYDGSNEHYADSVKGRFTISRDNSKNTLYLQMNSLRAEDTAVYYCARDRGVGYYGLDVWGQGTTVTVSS VL: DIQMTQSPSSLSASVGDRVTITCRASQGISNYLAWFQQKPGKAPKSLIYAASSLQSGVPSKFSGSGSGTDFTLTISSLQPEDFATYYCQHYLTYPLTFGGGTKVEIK
binding result: binds
